target: Phosphodiesterase 4 (Homo sapiens, UniProt P27815+Q08499+Q07343+Q08493); assay: Selectivity for rolipram binding site over phosphodiesterase 4; type: protein assay
measurement-label: Ratio

Sample records with Ratio:
Prompt: Param item = COC(=O)N1Cc2cc(OC)ccc2C(Cc2c(Cl)cncc2Cl)=N1 ; retrieve measured Ratio.
Response: 2.8

Prompt: One more compound: CCOC(=O)C(=O)N1Cc2cc(OC)ccc2C(Cc2c(Cl)cncc2Cl)=N1
Response: 1.9

1 = COc1ccc2c(c1)CN(C(=O)NO)N=C2Cc1c(Cl)cncc1Cl
2 = CCC(=O)N1Cc2cc(OC)ccc2C(Cc2c(Cl)cncc2Cl)=N1
Prompt: For the pair 1 and 2 , which entry has the numerically smaller recorded Ratio? Selection: enter the item's label.
Response: 1
(1: 2.4, 2: 8.5)
